Provide the reported self-cleavage of each item.
B1: LINE1-mini (parent)
chain: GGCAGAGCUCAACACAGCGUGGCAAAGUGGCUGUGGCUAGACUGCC

Variants of: B1
method.summary: self-cleavage, relative activity (ratio to wild type); higher = more cleavage; in vitro, sequencing; the parent is a self-cleaving ribozyme

Sample answers from the record:
mutations	observed.measurement
C8A G35A	0.42
C23A G29C	0.39
C3U G27U	0.41
C10U C42A	0.05
U28A A39U	0.39

# return self-cleavage for each item in the list
1. A4G U34A
2. A12C C37U
3. U9G A11C
4. G30A C31A
5. G7U G36C
6. G30A C45A

Data returned:
1: 0.07; 2: 0.02; 3: 0.02; 4: 0.4; 5: 0.09; 6: 0.71
